- Assayed target: Cav2.1 (Homo sapiens, UniProt O00555)
- Construct: host or cells: HEK293 or CHO
- Sequence (P54289 25-1103): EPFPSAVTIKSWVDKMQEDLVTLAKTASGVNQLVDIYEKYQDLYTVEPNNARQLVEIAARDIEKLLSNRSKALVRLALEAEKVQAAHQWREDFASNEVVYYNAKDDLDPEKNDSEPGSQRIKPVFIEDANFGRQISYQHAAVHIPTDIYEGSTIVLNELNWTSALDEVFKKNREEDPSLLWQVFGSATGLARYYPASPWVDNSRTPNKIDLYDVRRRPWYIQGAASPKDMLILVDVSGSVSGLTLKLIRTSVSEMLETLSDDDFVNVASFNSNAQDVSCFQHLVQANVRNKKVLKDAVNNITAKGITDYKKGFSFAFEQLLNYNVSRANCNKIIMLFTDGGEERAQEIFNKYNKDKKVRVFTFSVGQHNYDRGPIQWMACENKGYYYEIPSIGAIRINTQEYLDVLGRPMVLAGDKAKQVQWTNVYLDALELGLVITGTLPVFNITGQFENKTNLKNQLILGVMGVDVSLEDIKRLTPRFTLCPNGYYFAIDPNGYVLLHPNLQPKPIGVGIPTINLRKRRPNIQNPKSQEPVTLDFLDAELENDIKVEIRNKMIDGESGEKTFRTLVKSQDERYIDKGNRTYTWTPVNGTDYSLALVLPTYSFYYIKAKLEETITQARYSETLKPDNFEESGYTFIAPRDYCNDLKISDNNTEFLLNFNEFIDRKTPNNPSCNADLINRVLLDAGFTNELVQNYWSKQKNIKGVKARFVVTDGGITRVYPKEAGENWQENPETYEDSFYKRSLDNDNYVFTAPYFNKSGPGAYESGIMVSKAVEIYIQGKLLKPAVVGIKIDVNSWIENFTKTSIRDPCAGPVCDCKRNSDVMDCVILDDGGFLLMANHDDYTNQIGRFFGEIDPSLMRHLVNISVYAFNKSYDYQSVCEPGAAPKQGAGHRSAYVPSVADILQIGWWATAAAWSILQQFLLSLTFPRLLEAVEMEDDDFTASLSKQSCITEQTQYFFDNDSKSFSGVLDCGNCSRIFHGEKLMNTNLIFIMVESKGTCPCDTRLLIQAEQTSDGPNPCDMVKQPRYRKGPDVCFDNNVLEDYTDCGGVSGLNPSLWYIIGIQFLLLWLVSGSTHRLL
- Sequence (O00555 whole entry): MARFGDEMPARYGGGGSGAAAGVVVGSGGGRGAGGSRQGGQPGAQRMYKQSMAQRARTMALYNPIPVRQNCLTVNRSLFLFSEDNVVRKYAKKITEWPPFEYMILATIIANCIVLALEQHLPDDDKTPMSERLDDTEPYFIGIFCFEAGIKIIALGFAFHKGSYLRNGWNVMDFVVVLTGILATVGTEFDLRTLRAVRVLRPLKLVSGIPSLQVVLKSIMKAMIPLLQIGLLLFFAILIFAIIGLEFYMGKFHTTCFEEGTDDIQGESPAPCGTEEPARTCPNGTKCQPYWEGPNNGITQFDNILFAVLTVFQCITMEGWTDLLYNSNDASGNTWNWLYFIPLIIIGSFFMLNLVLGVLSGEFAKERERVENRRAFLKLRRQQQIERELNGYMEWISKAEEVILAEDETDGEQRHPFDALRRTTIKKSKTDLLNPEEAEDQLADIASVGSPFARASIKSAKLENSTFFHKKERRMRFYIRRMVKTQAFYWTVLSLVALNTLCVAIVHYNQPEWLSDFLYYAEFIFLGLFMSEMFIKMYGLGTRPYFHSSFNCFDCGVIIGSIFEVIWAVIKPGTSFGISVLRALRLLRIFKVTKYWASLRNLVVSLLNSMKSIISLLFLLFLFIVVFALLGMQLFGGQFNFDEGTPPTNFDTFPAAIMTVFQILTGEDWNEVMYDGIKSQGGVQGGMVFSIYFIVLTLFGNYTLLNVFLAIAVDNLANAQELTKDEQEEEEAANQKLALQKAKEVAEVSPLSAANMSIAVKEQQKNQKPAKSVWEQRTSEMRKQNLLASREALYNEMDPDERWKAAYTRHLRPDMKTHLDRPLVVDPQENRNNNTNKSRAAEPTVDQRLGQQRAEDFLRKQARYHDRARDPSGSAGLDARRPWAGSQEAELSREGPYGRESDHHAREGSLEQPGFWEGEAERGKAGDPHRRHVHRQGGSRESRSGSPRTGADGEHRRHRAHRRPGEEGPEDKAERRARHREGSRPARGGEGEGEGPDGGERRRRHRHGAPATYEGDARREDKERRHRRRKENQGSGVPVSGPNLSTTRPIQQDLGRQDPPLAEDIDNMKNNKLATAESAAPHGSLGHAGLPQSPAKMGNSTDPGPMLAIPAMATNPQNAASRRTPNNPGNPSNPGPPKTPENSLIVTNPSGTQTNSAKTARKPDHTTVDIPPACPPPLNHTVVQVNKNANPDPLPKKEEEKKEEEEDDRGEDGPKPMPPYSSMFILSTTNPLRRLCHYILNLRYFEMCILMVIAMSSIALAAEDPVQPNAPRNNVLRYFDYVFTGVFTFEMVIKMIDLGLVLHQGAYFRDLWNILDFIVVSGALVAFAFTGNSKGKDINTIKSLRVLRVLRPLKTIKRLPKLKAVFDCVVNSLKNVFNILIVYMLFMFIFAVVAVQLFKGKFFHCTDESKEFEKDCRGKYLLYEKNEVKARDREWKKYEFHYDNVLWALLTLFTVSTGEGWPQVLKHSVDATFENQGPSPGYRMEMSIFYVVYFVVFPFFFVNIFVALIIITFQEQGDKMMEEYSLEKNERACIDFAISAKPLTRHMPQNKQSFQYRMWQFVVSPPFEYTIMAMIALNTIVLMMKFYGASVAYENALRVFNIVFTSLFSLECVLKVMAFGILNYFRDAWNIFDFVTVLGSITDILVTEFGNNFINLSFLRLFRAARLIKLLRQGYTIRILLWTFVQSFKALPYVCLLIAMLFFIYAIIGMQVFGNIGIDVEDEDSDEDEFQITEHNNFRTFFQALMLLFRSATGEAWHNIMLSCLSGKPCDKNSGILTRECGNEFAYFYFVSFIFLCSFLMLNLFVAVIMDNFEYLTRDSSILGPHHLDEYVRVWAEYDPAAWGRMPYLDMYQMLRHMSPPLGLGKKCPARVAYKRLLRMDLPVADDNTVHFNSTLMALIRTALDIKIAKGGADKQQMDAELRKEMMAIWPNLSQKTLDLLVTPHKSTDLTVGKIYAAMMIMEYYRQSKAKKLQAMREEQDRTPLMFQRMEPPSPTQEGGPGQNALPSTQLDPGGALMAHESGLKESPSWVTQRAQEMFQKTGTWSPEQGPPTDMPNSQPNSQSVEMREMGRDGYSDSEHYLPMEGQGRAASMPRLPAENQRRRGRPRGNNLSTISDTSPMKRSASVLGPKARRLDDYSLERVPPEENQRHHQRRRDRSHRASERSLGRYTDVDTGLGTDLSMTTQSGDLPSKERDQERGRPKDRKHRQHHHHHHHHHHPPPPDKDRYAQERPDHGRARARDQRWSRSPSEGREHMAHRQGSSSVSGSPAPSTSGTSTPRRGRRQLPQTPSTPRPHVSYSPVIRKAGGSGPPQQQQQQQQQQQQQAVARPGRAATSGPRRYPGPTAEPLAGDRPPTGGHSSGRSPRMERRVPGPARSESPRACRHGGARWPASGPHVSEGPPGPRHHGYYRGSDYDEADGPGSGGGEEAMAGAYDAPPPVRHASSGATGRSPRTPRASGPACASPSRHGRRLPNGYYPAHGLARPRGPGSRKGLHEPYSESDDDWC
- Test: cell-based
- Measurement conditions: peptide at 0.2 μM; 100% = no change, <100% = inhibition
Metric: Activity of Cav2.1 with peptide, expressed as a percentage of the reference compound
Respond with a number, then the unit of measure.

Q: Look up Activity of Cav2.1 with peptide, expressed as a percentage of the reference compound: 22 (GSSDYCSNDFCFFSCRRDRCARGDCENGKCVCKNCHLN) [compound 22]
Result: 98%

Q: Recorded Activity of Cav2.1 with peptide, expressed as a percentage of the reference compound for 10 (GSQVQTNVKCQGGSCASVCRREIGVAAGKCINGKCVCYRN) [compound 10] , please?
Result: 104%

Q: // Activity of Cav2.1 with peptide, expressed as a percentage of the reference compound lookup, key: 30 (GSQVSTNKKCSNTSQCYKTCEKVVGVAAGKCMNGKCICYP) [compound 30]
Result: 111%

Q: Request the reported Activity of Cav2.1 with peptide, expressed as a percentage of the reference compound associated with 21 (GSAEIIRCSGTRECYAPCQKLTGCLNAKCMNKACKCYGCV) [compound 21]
Result: 103%

Q: Query (substance): 5 (GSGVPINVKCRGSRDCLDPCKKAGMRFGKCINSKCHCTP) [compound 5] ; field requested: Activity of Cav2.1 with peptide, expressed as a percentage of the reference compound
Result: 100%

Q: Recorded Activity of Cav2.1 with peptide, expressed as a percentage of the reference compound of 16 (GSQFCGTNGKPCVNGQCCGALRCVVTYHYADGVCLKMNP) [compound 16] , please.
Result: 113%

Q: Look at this substance and give its reported Activity of Cav2.1 with peptide, expressed as a percentage of the reference compound. 2 (GSEVIRCSGSKQCYGPCKQQTGCTNSKCMNKVCKCYGCG) [compound 2]
Result: 103%

Q: # lookup: Activity of Cav2.1 with peptide, expressed as a percentage of the reference compound of 32 (GSQDKCKKVYENYPVSKCQLANQCNYDCKLDKHARSGECFYDEKRNLQCICDYCEY) [compound 32]
Result: 98%

Kindly review the next substance as well.
Q: Entry under review: 6 (GSVRIPVSCKHSGQCLKPCKDAGMRFGKCMNGKCDCTPK) [compound 6] . Reported Activity of Cav2.1 with peptide, expressed as a percentage of the reference compound?
Result: 109%

====

- Assayed target: Kv1.1 (Homo sapiens, UniProt Q09470)
- Construct: host or cells: HEK293 or CHO
- Sequence (Q09470 whole entry): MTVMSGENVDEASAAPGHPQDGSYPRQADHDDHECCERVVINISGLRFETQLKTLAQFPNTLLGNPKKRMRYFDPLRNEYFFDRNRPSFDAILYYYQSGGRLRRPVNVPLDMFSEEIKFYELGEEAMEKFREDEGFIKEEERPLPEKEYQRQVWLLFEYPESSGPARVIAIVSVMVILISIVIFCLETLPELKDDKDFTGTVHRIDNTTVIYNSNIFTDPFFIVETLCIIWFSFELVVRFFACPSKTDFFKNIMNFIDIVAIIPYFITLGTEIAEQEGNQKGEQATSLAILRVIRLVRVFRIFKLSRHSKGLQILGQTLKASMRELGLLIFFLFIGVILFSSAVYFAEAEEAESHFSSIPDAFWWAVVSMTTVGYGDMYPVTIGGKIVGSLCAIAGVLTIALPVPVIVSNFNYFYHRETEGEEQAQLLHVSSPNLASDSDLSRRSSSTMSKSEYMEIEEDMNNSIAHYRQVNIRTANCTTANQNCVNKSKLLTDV
- Test: cell-based
- Format: cell-based
- Measurement conditions: peptide at 20 μM; 100% = no change, <100% = inhibition
Quick list: Activity of Kv1.1 with peptide (percentage of the reference compound) per entry.
Write the answer as a number in %, unit excluded.

Some substances with known Activity of Kv1.1 with peptide (percentage of the reference compound) results, for comparison:
Q: Fill in the blank: the reported Activity of Kv1.1 with peptide (percentage of the reference compound) of 17 (GSRPTDIKCSASYQCFPVCKSRFGKTNGRCVNGLCDCF) [compound 17] is ____.
Result: 89

Q: Can you look up the measured Activity of Kv1.1 with peptide (percentage of the reference compound) of 32 (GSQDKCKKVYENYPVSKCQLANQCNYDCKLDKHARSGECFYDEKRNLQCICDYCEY) [compound 32] for me?
Result: 114

Q: State the recorded Activity of Kv1.1 with peptide (percentage of the reference compound) for this entry: 29 (GSVFINVKCRGSPECLPKCKEAIGKSAGKCMNGKCKCYP) [compound 29]
Result: 64

Q: Suppose we examine the substance 38 (GSGIGDPVTCLKSGAICHPVFCPRRYKQIGTCGLPGTKCCKKP) [compound 38] ; what Activity of Kv1.1 with peptide (percentage of the reference compound) value has been reported?
Result: 73

Q: Sample 25 (GSACLAEYQKCEGSTVPCCPGLSCSAGRFRKTKLCTK) [compound 25] — what was its Activity of Kv1.1 with peptide (percentage of the reference compound)?
Result: 77

Q: Which Activity of Kv1.1 with peptide (percentage of the reference compound) is listed for 23 (GSCIGEGVPCDENDPRCCFGLVCLKPTLHGIWYKSYYCYKK) [compound 23] ?
Result: 102

Further cases:
Q: If you can, please state the reported Activity of Kv1.1 with peptide (percentage of the reference compound) value of 16 (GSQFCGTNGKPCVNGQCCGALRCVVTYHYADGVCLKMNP) [compound 16] .
Result: 67

Q: Recorded Activity of Kv1.1 with peptide (percentage of the reference compound) of 6 (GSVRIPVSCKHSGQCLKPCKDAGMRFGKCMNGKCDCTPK) [compound 6] , please.
Result: 30

Q: # lookup: Activity of Kv1.1 with peptide (percentage of the reference compound) of 2 (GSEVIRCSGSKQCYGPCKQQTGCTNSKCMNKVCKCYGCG) [compound 2]
Result: 68

====

Reported Activity of TRPA1 with peptide (percentage of the reference compound) values for a set of substances
- Assayed target: TRPA1 (Homo sapiens, UniProt O75762)
- Construct: host or cells: HEK293 or CHO
- Test: Ion channel panel (IonWorks Barracuda): TRPA1
- Assay type: cell-based
- Measurement conditions: peptide at 20 μM; 100% = no change, <100% = inhibition
// return numeric value only (unit: %, not printed)

Q: Activity of TRPA1 with peptide (percentage of the reference compound) for 22 (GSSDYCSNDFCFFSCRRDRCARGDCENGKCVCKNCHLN) [compound 22] ?
Result: 128

Q: Name the reported Activity of TRPA1 with peptide (percentage of the reference compound) value associated with the substance 15 (GSAVCNLKRCQLSCRSLGLLGKCIGDKCECVKHG) [compound 15]
Result: 76

Q: Reported Activity of TRPA1 with peptide (percentage of the reference compound) for 13 (GSQKILSNRCNNSSECIPHCIRIFGTRAAKCINRKCYCYP) [compound 13] : what is it?
Result: 113

Q: # Activity of TRPA1 with peptide (percentage of the reference compound) lookup, item 16 (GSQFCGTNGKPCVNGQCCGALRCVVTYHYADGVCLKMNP) [compound 16]
Result: 116

Q: Query (substance): 11 (GSGDCLPHLKRCKENNDCCSKKCKRRGANPEKRCR) [compound 11] ; field requested: Activity of TRPA1 with peptide (percentage of the reference compound)
Result: 109

More entries:
Q: Given 6 (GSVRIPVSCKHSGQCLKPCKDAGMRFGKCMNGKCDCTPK) [compound 6] , state its recorded Activity of TRPA1 with peptide (percentage of the reference compound).
Result: 92

Q: Dear colleague, I am looking for the recorded Activity of TRPA1 with peptide (percentage of the reference compound) of the following substance: 5 (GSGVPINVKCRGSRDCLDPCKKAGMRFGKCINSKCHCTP) [compound 5]
Result: 75

Q: May I ask what Activity of TRPA1 with peptide (percentage of the reference compound) has been recorded for 21 (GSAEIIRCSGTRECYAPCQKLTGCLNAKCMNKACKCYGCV) [compound 21] ?
Result: 95

====

- Assayed target: hERG (Homo sapiens, UniProt Q12809)
- Test: in vitro
- Measurement conditions: peptide at 0.2 μM; 100% = no change, <100% = inhibition
Metric: Activity of hERG with peptide, expressed as a percentage of the reference compound (%)
Report the figure in % without appending any unit label.

# example entries with known answers
Q: What is its Activity of hERG with peptide, expressed as a percentage of the reference compound for hERG (Homo sapiens, UniProt Q12809)? Entry: 29 (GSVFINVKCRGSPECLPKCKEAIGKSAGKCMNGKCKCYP) [compound 29]
Result: 95

Q: Form: Entry = 36 (GSAQEPVKGPVSTKPGSCPIILIRCAMLNPPNRCLKDTDCPGIKKCCEGSCGMACFVPQ) [compound 36] | System = hERG (Homo sapiens, UniProt Q12809) | Activity of hERG with peptide, expressed as a percentage of the reference compound = ____
Result: 84

Q: GET /values?readout=Activity of hERG with peptide, expressed as a percentage of the reference compound&system=hERG (Homo sapiens, UniProt Q12809)&item= 19 (GSQFTDVKCTGSKQCWPVCKQMFGKPNGKCMNGKCRCYS) [compound 19]
Result: 98

New cases:
Q: Identify the measured Activity of hERG with peptide, expressed as a percentage of the reference compound of 22 (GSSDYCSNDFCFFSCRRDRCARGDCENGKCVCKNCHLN) [compound 22] for hERG (Homo sapiens, UniProt Q12809).
Result: 84

Q: Hi! What's the reported Activity of hERG with peptide, expressed as a percentage of the reference compound for 3 (GSSEKDCIKHLQRCRENKDCCSKKCSRRGTNPEKRCR) [compound 3] on hERG (Homo sapiens, UniProt Q12809)?
Result: 121

Q: Please provide the recorded Activity of hERG with peptide, expressed as a percentage of the reference compound for 18 (GSNCAGYMRECKEKLCCSGYVCSSRWKWCVLPAPWRR) [compound 18] , tested on hERG (Homo sapiens, UniProt Q12809).
Result: 98

Q: # get_value(readout= Activity of hERG with peptide, expressed as a percentage of the reference compound, system= hERG (Homo sapiens, UniProt Q12809)) for 32 (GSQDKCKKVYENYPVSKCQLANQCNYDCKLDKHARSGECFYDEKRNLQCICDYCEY) [compound 32]
Result: 90

Q: Please tell me: Activity of hERG with peptide, expressed as a percentage of the reference compound of 14 (GSDRDSCIDKSRCSKYGYYQECQDCCKKAGHNGGTCMFFKCKCA) [compound 14] , system hERG (Homo sapiens, UniProt Q12809)?
Result: 82
